Molecular target: T1, A Proliferation Inducing Ligand (APRIL) (human, UniProt O75888 105-250)
T1 sequence: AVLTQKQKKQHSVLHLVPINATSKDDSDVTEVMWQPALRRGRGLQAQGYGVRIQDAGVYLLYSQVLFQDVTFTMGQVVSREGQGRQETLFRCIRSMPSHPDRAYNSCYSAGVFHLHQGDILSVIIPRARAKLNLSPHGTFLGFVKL
Assay: cell binding titration by flow cytometry; soluble APRIL varied to 10 nM on cells displaying the BCMA clone
ATTRIBUTE MEASURED: pKd
Answers are plain numbers, as −log10 of the molar value.

BINDER	pKd
BCMA#74 (receptor, also called Clone #74; sBCMA variant clone 74) variant BCMA extracellular domain: MLQMAGQCPQDEYFDGLLYACIPCQLRCSSNTPPLACQRYCNASVTSSVKGTDA	11.15

Switching to the query record.
# return recorded pKd for input BCMA#95 (receptor, also called Clone #95) variant BCMA extracellular domain: VSQTAGQCSQDEYFDSLLYACIPCQLRCSSNTPPLACQRYCNASVTNSVKGTNA
10.55

Cited source for all entries: patent US20240294604A1
